Cited source: the supplement of paper PMC12764529

assay: folding stability dG unfold from chymotrypsin proteolysis; higher = more stable
Tick True if folding stability dG unfold is 2 kcal/mol or greater. Tick False if folding stability dG unfold is less than 2 kcal/mol.

| residues | group label |
| --- | --- |
| SAGNPDYIPIPFRVWIMRRVPPGMSKEQAKKNPDMYVMVPIPVKFYIDPDTGRIRVENPDGKTIEFPLPSAG [r5_701_TrROS] | True |
| SAGGSAGGSAGMMVVRAKIKLPNGEVLEIENMSLEEILALAKEKGYEIVDIEVVAPDEEPSAGGSAGGSAGG [r11_283_TrMRF] | True |
| SAGGSAPPNIEREEYEFYLRNPDGKELGPAKIEVIRDPGDPDRPILTIEWPNGEPMLFDADDIEPLSAGGSA [r15_954_TrROS] | False |
| FEELRNLPGLSLTPLAEEGEVRVYRLSLPPSVLAARGLPGVTVTVTVFPDGSYTVLPDDVPALEAAGLVVES [r1_256_JUSTAS] | True |
| SAGGSAGGSEKEIVLVVKSKEDALKAAEELAKALGLEVEVEVIEVKTLENGEKYVVVKITIKDSAGGSAGGS [r12_924_TrROS_Hall] | True |
| SAGGSAGGSAGGMVVEVVELPDGQLVVRAGPVGYAVVFNGEEVTLFELPPDAEVELLPFSAGGSAGGSAGGS [r10_637_TrMRF] | False |
| SAWIPAKEIAKYLAKELQEKMPHPGMKIPVDVETNPEENYVRVDIDIEHPGDGGKWKFEIYIPPGDTIVSAG [r14_849_TrROS] | False |

###

test: folding stability dG unfold from chymotrypsin proteolysis; higher = more stable
# key: entry, value: folding stability dG unfold
endpoint: folding stability dG unfold (kcal/mol)

| residues | endpoint | unit symbol | result |
| --- | --- | --- | --- |
| FRFTIPLPDGKKIIIDYRPMPDGNYMFDVKLQLPNGKERTIPIMVPREEFPGMPMEEMAETMVKEALKKLKS [r1_92_TrROS] | folding stability dG unfold | kcal/mol | 3.4 |
| SAGGSAGGSPGMKPVEIPFRNPDGKNWKITSIYVMPDGPAMITIEDPNNGKERQIPAEDIDEFSAGGSAGGS [r12_488_TrROS] | folding stability dG unfold | kcal/mol | 0.227 |
| SAGGSAVIEFELELRTRPDGSVEEEEIIAEARELIEAIPEAENAEILEIRREAFPDGTVRYHVRVRVPSAGG [r13_462_TrMRF] | folding stability dG unfold | kcal/mol | 3.01 |
| SPLKPNDIRPIKFTSPIRNPDNGRPFRIKVEIWVMPEDPMVIIKDEIEPPNGRTREHTFWIPPGQKIEIPSA [r9_88_TrROS] | folding stability dG unfold | kcal/mol | 0.358 |
| SAGGSAGGSKVKLTFTIPPGTTPEEAIAKAEELAKKLNIPIVKIDSIEYDPETGTVRIELELDSAGGSAGGS [r12_131_TrMRF] | folding stability dG unfold | kcal/mol | 4.31 |
| SAGGLKPGDWVIIMTIEFPFPFPDDDGKPQEWRIKITIWVPVEYDPPDGKLEIDNIFINIEIVPPDQISAGG [r13_312_TrROS] | folding stability dG unfold | kcal/mol | 4.55 |
| SAGGSAGGSKVEVKEFEFKANGSKALIEKLEDGSVKIIVLGEEPKEYEISPEEPIVILPGFEVSAGGSAGGS [r12_1003_TrMRF] | folding stability dG unfold | kcal/mol | -0.172 |
| SAGGSAGGSAGGKKITIVMSAEEAEALAKALEDAGIDIDNLKIEVVKVEFPPALPAEDKSAGGSAGGSAGGS [r10_602_TrROS_Hall] | folding stability dG unfold | kcal/mol | 1.8 |
| SAGAGKTPDGKEYIIPFTFKNENGETTPEEIEEKIKEFTAKHPEVKIKEIKAIKEGDSVKVLVVVEKPASAG [r5_688_TrMRF] | folding stability dG unfold | kcal/mol | 2.77 |
| SAELIEALKKAGYRIKIEVEVTEVRVVRNEDGELKVEAKIKVKIEIEPLPPPPPPLSLEDLLDKNGKLVSAG [r14_569_TrROS_Hall] | folding stability dG unfold | kcal/mol | 3.3 |
| SAGGSAKKKKGKKKKKIKKIKIKLKLPPGAEIVKIDKEKGVIYIRNKKTNKIYKIDLKTGKIVEIPSAGGSA [r15_452_TrROS_Hall] | folding stability dG unfold | kcal/mol | 3.66 |
| SAGDKKTIELWFMFKTPEEARHEADSIARRLAEEGLTIKVELKDIEPMPDPDGEKYYMFEFKVTIQLPNSAG [r5_158_TrROS] | folding stability dG unfold | kcal/mol | 3.28 |
| SAGGRFYFEAKDPSITPEELRAALEEAFGVKFHRIKPVEPLPDGMLYEVEIPEIGGHFDVSAEEIEKLLSAG [r5_550_TrMRF] | folding stability dG unfold | kcal/mol | 1.78 |
| SAGGMPLEDMSLEELKARLEEALEELRAKLPPGEKKTLTLTVTLTVVDKETGETRTVTLTVTLTLPAPSAGG [r13_385_TrROS_Hall] | folding stability dG unfold | kcal/mol | 4.38 |

###

assay: folding stability dG unfold from chymotrypsin proteolysis; higher = more stable
Please mark Fulfilled if the recorded folding stability dG unfold is equal to or greater than 1 kcal/mol, and Not fulfilled if it falls below.

| residues | group label |
| --- | --- |
| SAGGSAGGSVYSAKSPDGYTITISNGGKPITLPVSDPAKAASLTLKTPDGKTATVTIVPASLASAGGSAGGS [r12_730_JUSTAS] | Not fulfilled |
| SAGGSAGGSAGGAPAAVESVEPLKIGDKEYLRITFPDGTTVTLPSSTPLSPDGQKLKPVPSAGGSAGGSAGG [r7_931_JUSTAS] | Not fulfilled |
| SAGGSAGGGMEPVTETITVPITTPEELEAVKKEAEARREKEGLVSYEISESPDGTVTITITKPVSAGGSAGG [r6_730_JUSTAS] | Not fulfilled |
| SAGGSLKDMPVEDLAKYFARKMGYPITDVKVERNPDPPWIKINIEMEHPNDGRRHPHEIWIPKDDISAGGSA [r2_156_TrROS] | Fulfilled |
| SAMMKAEIVEIKFDPKTKKLTIKFPDGSKLEIKPGETIKIKIKVTVFNEETGKLEEKEITLTLKLPEGLSAG [r14_366_TrROS_Hall] | Fulfilled |
| SAGGSAGGSAGGEELEVSVSVSVTEVDGKLYLTATVTIDGKEYTFTAELTVTLPPPPPEESAGGSAGGSAGG [r7_413_TrROS_Hall] | Fulfilled |
| SAGGSAGGMVISLPNNYKIKLGITDAEFDEVKVYTGPNGPKKLVSGANIKLKIGISIYKSNDNSSAGGSAGG [r6_585_TrMRF] | Fulfilled |
| SAGPWKIEVEQYDPNGKKEEIEDPEDLLDLAKDLPPNRMVHIKIPNGRETIMFQNPDGNVFVLKIERPESAG [r5_506_TrROS] | Not fulfilled |
| SAGGKKKKVIIVIEAPPGMSAEEIAAAIAEKLGLPKEEIKVERFKSVEEALAAAEKEGKEVIVIEVDSAGGS [r8_245_TrROS_Hall] | Fulfilled |
| SAGGSAGGSAGGMIKTKDGKVLEFKSLEEALAALKELGVDEVEIEELEPEGVVKVKVKPSAGGSAGGSAGGS [r10_1191_TrROS_Hall] | Fulfilled |
| SAGGSAGGSAGGPLKEAVEAAVASGAPEAEYLLVTPEGELRVTVKVYPEEGKVEVEVSPLSAGGSAGGSAGG [r17_475_TrMRF] | Not fulfilled |
| SAGGSAGGSAGMTLEELERLGYKVEVFRHPDTPEVYVRVEYPVPPGGLKRAVIPLKDVKLSAGGSAGGSAGG [r17_311_TrMRF] | Not fulfilled |
| SAGGSAGGSAMKKVTITLLDPRNGKEHTVTLPADITEEEAKAAAEAVAAERGWEVLSIEFEPSAGGSAGGSA [r18_322_JUSTAS] | Fulfilled |
| SAGGSAGGSAGGKVEEVEKLAEELEKELGVDIGEVEVLDHPDKFRYRIRIPDLDLDLEFSAGGSAGGSAGGS [r10_161_TrMRF] | Not fulfilled |

###

Entries and their folding stability dG unfold
assay: folding stability dG unfold (combined trypsin and chymotrypsin); higher = more stable

| residues | folding stability dG unfold |
| --- | --- |
| SAGGSAGGSAGGSKTIEIELPGMSPEEIAAAIAEELGLDDVKITVERTEDGLLRVTIEVSAGGSAGGSAGGS [r4_408_TrROS_Hall] | 1.76 kcal/mol |
| SAGGKIKVTVEKEENGTYRVTVEITLPDGKKITITVTVPPGVKTEEEAKKLAEEKVKELLKKLGIKPSAGGS [r8_464_TrROS_Hall] | 4.11 kcal/mol |
| SAGGSAGGSAGGKWHLITFTITMEMYVMKFDPENGKWKPVDPIPMEIQITFLIPPGDPISAGGSAGGSAGGS [r10_610_TrROS] | 4.65 kcal/mol |
| SAGGSAGGMTTTEISTKKLPDGTWATTVTTTTITATNGVPVTTSTPTTIINPGDPSVAIAAALSSAGGSAGG [r6_129_JUSTAS] | -0.173 kcal/mol |
| SGPTSITFPDGSSASISLSPDSFTITITLPGSSATSTYDPATGTTTITLTFSSSTVTLTLDPATGTLTVGSA [r9_207_JUSTAS] | 4.89 kcal/mol |
| SAGGEKVPLKIRDPDNGNPHEFDKIESIDSVEMQKPPDNRQQYSIRFPGDGRPIMIDDPEDIEEALKSAGGS [r8_206_TrROS] | < -1 kcal/mol |
| SAGGPGYWRIKIYPKDTGKPHEFPIPLDQIRKVDPKNNKIEISFPNGPTIKIPDPEDIKAVQIEPWPSAGGS [r8_111_TrROS] | < -1 kcal/mol |
| SAGGSAGGSALKPNETATIRILTTAPDGKPYVLVVEVRVLPDGGVEVLGYKLVTLSDLEKNSAGGSAGGSAG [r3_212_TrMRF] | 3.32 kcal/mol |
| SAGGSFSVDVPPDATVEVEEKVKRPDGSEVHLKITITRLPTSGKVLVTVEDNPPEKGSTTKEEIVPLESAGG [r13_934_JUSTAS] | 0.658 kcal/mol |
| SAGPDLPFDVRLVEVRDMEVRVTPDGRLVVTLPMVGRHPSGFLVRRTIRFEPETDRVEATGEVRPLDESAGG [r19_320_TrMRF] | 0.774 kcal/mol |
| SAGGSAGGSDVEVTVTLEYDEETGVLYVTAEVRDKETGRTVRVVVKFDLETNEWEVVAVEVLPSAGGSAGGS [r20_163_TrROS_Hall] | 3.91 kcal/mol |
| SAGIKPGEKIEKVEIVKVEVKKNKDGSKTVTVTIKLKDGKTITIKPGETIEIKIENKKEGEKITLKVKSAGG [r19_199_TrROS_Hall] | 1.74 kcal/mol |
| SAMLKLEITLPDGTVVEVEIPLERPVPPAGEEEALAAAEAVREAVAAALGLEDAEVTMEVEEVSPEELLSAG [r14_378_JUSTAS] | 1.41 kcal/mol |
| TLSPEEIEAEARARAEAAVAARPDSAADVELDVPVEFPVRTERRDPRSDRWSRSLSTVRLRLRLRLARGAGS [r1_90_JUSTAS] | -0.468 kcal/mol |
| SAGGMKTLRLVVTVKVPKETGKPTVAEKLAEELAKLPGVEVVKVEVKRLENGTVVVTIEIKVPKELKPSAGG [r13_428_TrROS_Hall] | 3.18 kcal/mol |
| SAGGSAGGSAGGSITITTEPLPSGGRRVTVTLPGSSVVLELEFSPDETEEEVRAAVEAASAGGSAGGSAGGS [r10_825_JUSTAS] | 1.93 kcal/mol |
| SAGGSAGGEIPPNIKKIETLPDDGWLMVKVDSPKDIREFFEDHGWEIKDVEEEGNTIHIPIKPKSAGGSAGG [r6_381_TrROS] | 0.79 kcal/mol |
| SAGGSAGGSAGGMKVSVSLDILETEVSPDGTVTATYKDESGEIRTITKYVEVKLKPGLASAGGSAGGSAGGS [r10_281_JUSTAS] | -0.237 kcal/mol |
| SAGGSARALLEELEVLSEEDRGDFTVVTVKGPAAEYPAEEVRAALEALGIAVEYDPATGEVTVYVASAGGSA [r15_599_JUSTAS] | 0.69 kcal/mol |
| SAGGSAGGSAGGKKKIKVELEVKEDGTIRMKATTEDGEEIETEIKVEKVEVTVFLPPEKSAGGSAGGSAGGS [r10_237_TrROS_Hall] | 1.55 kcal/mol |
| SAGTIWIPVDELKELGIPPGDTAEEFKQQISDRLMEQGWTVKIPDIEVEPLDPNDGRVWVRINIEFKPPSAG [r5_23_TrROS] | 0.94 kcal/mol |
| SAGGFVTFKAPPVLIEAFKKAGLTPSEAKTLLLPVKFGDKEVVVEVTFYPETGEVKVKVLSFGTEFEAESAG [r5_545_TrMRF] | 3.07 kcal/mol |
| MDVKIEPYRDPETGELYYKAVVKFKDGKEKLIEVKVPPNGKPIAKIYDPNGKLLAEKEFDSIEEALKEALAS [r1_478_TrMRF] | 3.91 kcal/mol |
| SAGGMKIEKIFSSEEEAKAAAEKIKNETPEGKELKIEISKIPLKENLPPESPEILDEERYIVKVELPSAGGS [r16_795_JUSTAS] | 0.467 kcal/mol |
| SAGGSAGGSILVIKIKFPGNGRPIHYPIKDPEDFDRVLKKAKERFPGYDKDNIKEAEIYPLPPSAGGSAGGS [r12_852_TrROS] | -0.0696 kcal/mol |
| SAGGSAGGSAGMTVKEFTTEEEAKEAIEKAPKDVPLLLILKKPESEEEKVILYTGDKVIEEESAGGSAGGSA [r18_407_JUSTAS] | < -1 kcal/mol |
| SAGKVKVEKLEDGTVIVEAEIKDPETDEYIKIFDLVTFNPETGYALVPRLVIKGDKPFTFPVLVKLPKSAGG [r19_289_TrMRF] | 0.671 kcal/mol |
